tested on: MCF7 breast; experiment: NCI tumour cell line growth inhibition, 48 h
*1 amine or outer side, *2 acyl side, *3 side chain or, on linkers, in order; H or OH if unused. Where a SMILES comes first, the peptide text is derived from it. Bridges are numbered along the chain shown (N, C = ends). [ ]: non-standard residue; d: D form. The star is where a group is joined. Phe(3,5-F2) = N[C@@H](Cc1cc(F)cc(F)c1)C(=O)O; Pro(4R-Me) = C[C@H]1CN[C@H](C(=O)O)C1; aThr = C[C@H](O)[C@H](N)C(=O)O; Pip = O=C(O)[C@@H]1CCCCN1; X10 = Fc1cc(C2CC2)ccc1N*; Abu = CC[C@H](N)C(=O)O; CO = O=C([*:1])[*:2]
outcomeMeasure: TGI

Known results for compounds:
{"compound": "Nc1ccc2c(c1)Cc1ccccc1-2", "testedSystem": "MCF7 breast", "TGI": "> 100 µM"}
{"compound": "CCCCCCCC/C=C\\CCCCCCC/C=C1/C[C@](/C=C/C(=O)OC)(CO)OC1=O", "testedSystem": "MCF7 breast", "TGI": "20.8 µM"}
{"compound": "O=c1[nH]c2ccc(N=Cc3c(O)[nH]c4ccccc34)cc2[nH]1", "testedSystem": "MCF7 breast", "TGI": "> 25 µM"}

// each compound listed below needs its TGI
1. c1cc2sc1CSCCSCCSC2
2. CC(=O)Oc1ccc2oc(=O)cc(C)c2c1
3. COc1ccc2c(=O)c(-c3cc4c(cc3OC)OCO4)coc2c1
4. CC[C@@H]1NC(=O)[C@@H]2CCCCN2C(=O)[C@@H]2CCCN2C(=O)[C@@H](NC(=O)[C@H](Cc2cc(F)cc(F)c2)NC(=O)Nc2ccc(C3CC3)cc2F)[C@H](C)OC(=O)[C@@H]2C[C@@H](C)CN2C1=O ({X10-CO}-[Phe(3,5-F2)][aThr]P[Pip][Abu][Pro(4R-Me)]; ester 2-C)

Output:
["> 100 µM", "> 100 µM", "> 100 µM", "14.9 µM"]
